Ref: patent US11964938B2

target: MRP3 (Homo sapiens, UniProt O15438); construct: host or cells: HEK293 (membrane vesicles); assay: Vesicular transport inhibition assay, MRP3; assay type: biochemical; details: membrane vesicles from HEK293 cells; symbol per footnote
Sequence (O15438 whole entry): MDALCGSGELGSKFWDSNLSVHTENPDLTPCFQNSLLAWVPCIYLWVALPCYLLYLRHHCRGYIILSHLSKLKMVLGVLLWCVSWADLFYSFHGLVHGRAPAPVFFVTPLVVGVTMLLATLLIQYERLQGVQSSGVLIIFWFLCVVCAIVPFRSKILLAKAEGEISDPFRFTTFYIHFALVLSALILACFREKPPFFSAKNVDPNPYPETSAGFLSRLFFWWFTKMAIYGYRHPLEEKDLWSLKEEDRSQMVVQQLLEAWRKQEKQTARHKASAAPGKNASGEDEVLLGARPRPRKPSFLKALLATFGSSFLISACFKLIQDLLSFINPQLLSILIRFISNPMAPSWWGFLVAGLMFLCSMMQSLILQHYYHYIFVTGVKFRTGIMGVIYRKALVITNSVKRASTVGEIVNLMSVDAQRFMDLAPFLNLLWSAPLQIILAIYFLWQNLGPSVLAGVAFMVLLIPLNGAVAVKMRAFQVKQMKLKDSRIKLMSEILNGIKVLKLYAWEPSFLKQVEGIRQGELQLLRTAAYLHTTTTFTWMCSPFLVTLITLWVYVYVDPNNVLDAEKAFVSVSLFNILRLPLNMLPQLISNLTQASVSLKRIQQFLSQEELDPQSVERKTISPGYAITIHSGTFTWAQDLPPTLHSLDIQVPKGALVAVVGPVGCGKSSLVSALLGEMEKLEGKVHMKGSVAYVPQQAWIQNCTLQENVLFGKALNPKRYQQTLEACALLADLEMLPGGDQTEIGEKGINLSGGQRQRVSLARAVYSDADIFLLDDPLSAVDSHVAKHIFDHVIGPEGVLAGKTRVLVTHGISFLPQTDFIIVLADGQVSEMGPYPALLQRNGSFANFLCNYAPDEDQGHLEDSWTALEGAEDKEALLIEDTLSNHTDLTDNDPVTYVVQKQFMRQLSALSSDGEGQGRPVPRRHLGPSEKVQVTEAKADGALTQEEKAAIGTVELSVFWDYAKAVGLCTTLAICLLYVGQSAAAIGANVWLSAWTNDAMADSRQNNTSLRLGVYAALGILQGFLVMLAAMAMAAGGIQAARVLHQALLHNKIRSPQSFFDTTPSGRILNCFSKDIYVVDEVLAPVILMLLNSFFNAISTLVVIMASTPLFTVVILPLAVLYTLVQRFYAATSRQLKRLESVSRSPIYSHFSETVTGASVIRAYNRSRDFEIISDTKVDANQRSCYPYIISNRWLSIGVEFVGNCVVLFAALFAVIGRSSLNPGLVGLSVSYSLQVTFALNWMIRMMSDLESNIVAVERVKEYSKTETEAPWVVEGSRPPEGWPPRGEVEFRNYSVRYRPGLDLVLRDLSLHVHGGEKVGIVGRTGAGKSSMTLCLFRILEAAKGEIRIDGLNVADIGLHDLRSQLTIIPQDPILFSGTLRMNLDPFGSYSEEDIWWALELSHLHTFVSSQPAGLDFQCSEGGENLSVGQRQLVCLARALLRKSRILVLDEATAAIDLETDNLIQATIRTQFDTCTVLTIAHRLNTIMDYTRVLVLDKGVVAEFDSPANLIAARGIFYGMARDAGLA
pIC50: −log10 of the molar value. Structures can show the parent of a compound that is named as a salt.
Property name: pIC50

Task: Entry CC#C[C@@H](CC(=O)O)c1ccc(OCC(C)=C(C)C)cc1 [Example S1, calcium salt] : reported pIC50 = ?
Result: < 4.00

###

molecular target: MRP3 (Homo sapiens); construct: host or cells: HEK293 (membrane vesicles); test: Vesicular transport inhibition assay, MRP3; format: biochemical; conditions: membrane vesicles from HEK293 cells, 2 mM glutathione
Property name: IC50 (µM)
Output spec: scalar in µM, unitless text.

Task: Lab note: need IC50 for Cc1cc(OCCCS(C)(=O)=O)cc(C)c1-c1cccc(COc2ccc3c(c2)OC[C@H]3CC(=O)O)c1 [Example R1, reference compound] on MRP3 (Homo sapiens), anyone have it?
Result: 31.8

###

tested on: Wistar HAN Crl:WI (HAN) rats; assay: Glucose tolerance test in vivo on rats; set-up: species or system rat; conditions: 10 mg/kg oral single dose, i.p. glucose bolus at t=0 and 6 h, blood
Please mark T if the recorded AUC for glucose (0-540 min.) is equal to or greater than 30000, and F if it falls below.

Task: Determine whether this compound has AUC for glucose (0-540 min.) no lower than 30000: CC#C[C@@H](CC(=O)O)c1ccc(OCC(C)=C(C)C)cc1 [Example F33]
Result: F

Task: Determine whether this compound has AUC for glucose (0-540 min.) no lower than 30000: CC#C[C@@H](CC(=O)O)c1ccc(OCCC(C)C)cc1 [Example F24]
Result: F

Task: Determine whether this compound has AUC for glucose (0-540 min.) no lower than 30000: CC#C[C@@H](CC(=O)O)c1ccc(OCC=C(C)C)cc1 [Example F28]
Result: F

Task: Determine whether this compound has AUC for glucose (0-540 min.) no lower than 30000: Cc1cc(OCCCS(C)(=O)=O)cc(C)c1-c1cccc(COc2ccc3c(c2)OC[C@H]3CC(=O)O)c1 [Example R1, reference compound]
Result: T

Task: Determine whether this compound has AUC for glucose (0-540 min.) no lower than 30000: CC#C[C@@H](CC(=O)O)c1ccc(OC/C=C(\C)CCC=C(C)C)cc1 [Example F6]
Result: F

###

target: BSEP (Homo sapiens, UniProt O95342)
Sequence (O95342 whole entry): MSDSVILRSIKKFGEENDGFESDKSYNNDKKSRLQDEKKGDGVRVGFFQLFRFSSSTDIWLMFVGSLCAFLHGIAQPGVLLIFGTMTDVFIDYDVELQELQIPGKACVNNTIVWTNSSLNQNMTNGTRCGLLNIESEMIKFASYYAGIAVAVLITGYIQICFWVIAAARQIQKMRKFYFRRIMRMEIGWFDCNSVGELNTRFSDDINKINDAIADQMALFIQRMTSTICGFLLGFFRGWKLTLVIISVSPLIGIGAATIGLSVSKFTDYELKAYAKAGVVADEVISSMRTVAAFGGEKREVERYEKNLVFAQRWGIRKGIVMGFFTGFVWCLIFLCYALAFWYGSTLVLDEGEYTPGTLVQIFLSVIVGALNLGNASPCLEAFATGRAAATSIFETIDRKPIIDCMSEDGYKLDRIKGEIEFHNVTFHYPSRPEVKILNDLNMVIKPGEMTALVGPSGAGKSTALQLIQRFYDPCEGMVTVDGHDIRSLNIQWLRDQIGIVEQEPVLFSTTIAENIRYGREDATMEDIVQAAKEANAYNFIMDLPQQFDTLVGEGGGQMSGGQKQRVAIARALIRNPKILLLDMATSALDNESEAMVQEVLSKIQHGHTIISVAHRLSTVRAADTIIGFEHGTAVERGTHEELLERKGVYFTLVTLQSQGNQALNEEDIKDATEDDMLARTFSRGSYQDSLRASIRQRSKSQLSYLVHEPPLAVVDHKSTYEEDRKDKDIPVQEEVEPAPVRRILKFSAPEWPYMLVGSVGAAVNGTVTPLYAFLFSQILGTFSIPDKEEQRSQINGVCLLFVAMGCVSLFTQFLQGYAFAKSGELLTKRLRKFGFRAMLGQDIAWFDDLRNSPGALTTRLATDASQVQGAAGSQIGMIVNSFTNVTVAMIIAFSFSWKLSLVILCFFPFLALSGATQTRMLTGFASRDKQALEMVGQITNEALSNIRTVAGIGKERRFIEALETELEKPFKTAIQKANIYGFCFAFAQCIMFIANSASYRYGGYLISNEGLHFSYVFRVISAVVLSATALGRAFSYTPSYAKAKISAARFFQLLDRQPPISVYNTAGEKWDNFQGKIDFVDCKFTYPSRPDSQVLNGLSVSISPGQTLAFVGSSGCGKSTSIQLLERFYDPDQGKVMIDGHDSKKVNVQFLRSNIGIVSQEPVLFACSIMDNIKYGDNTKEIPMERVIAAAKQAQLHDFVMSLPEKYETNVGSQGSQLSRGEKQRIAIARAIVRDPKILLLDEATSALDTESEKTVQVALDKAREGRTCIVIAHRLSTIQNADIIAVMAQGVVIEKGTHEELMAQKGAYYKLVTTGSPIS
Property name: pIC50
pIC50 (log units): -log10 of the concentration in mol/L.

Task: Entry Cc1cc(OCCCS(C)(=O)=O)cc(C)c1-c1cccc(COc2ccc3c(c2)OC[C@H]3CC(=O)O)c1 [Example R1, reference compound] : reported pIC50 = ?
Result: 4.52

###

target: MRP2 (Homo sapiens); construct: host or cells: HEK293 (membrane vesicles); test: Vesicular transport inhibition assay, MRP2; assay type: biochemical; details: membrane vesicles from HEK293 cells; symbol per footnote
Sequence (Q92887 whole entry): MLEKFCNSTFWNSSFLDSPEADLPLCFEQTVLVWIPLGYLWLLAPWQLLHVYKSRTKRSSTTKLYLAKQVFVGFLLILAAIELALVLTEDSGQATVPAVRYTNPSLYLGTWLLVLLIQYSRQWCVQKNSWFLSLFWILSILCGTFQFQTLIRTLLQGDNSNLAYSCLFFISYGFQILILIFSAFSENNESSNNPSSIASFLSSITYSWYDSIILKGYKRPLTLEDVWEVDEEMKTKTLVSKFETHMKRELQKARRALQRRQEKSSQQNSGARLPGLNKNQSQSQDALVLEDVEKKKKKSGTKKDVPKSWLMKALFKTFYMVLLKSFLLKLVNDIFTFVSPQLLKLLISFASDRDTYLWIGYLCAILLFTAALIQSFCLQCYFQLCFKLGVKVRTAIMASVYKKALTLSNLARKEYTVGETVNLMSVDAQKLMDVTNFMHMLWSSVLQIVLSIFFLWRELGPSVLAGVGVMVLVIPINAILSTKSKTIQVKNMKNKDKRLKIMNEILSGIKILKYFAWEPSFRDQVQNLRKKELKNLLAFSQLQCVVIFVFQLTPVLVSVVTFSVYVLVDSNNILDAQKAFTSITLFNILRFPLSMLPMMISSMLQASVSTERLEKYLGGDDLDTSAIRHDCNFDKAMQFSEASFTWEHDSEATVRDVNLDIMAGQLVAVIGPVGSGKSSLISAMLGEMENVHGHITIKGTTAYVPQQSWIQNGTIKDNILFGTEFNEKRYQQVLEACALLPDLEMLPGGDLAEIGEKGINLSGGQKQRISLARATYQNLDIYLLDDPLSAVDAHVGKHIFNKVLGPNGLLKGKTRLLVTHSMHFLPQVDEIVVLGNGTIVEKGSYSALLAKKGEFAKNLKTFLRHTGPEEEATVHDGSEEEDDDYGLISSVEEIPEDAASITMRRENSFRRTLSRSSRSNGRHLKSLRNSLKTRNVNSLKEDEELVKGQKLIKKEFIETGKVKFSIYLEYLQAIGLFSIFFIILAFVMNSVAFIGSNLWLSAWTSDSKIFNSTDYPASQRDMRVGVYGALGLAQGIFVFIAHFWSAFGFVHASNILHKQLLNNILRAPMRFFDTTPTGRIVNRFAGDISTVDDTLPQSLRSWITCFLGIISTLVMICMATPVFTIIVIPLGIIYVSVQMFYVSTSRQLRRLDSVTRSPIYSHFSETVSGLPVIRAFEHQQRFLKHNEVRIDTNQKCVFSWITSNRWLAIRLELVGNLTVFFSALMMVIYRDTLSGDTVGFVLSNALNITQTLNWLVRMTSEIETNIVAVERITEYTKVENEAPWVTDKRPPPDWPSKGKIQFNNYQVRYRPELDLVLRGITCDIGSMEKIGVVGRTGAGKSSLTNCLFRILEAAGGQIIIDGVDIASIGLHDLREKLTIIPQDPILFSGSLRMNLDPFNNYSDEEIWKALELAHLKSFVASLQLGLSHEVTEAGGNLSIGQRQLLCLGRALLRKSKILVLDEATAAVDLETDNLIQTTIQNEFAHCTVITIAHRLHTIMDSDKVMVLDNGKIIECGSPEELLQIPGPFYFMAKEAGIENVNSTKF
pIC50: −log10 of the molar value. Counter-ions that a name gives are not always drawn.
Property name: pIC50

Task: Entry CC#C[C@@H](CC(=O)O)c1ccc(OCC(C)=C(C)C)cc1 [Example S1, calcium salt] : reported pIC50 = ?
Result: < 4.00

###

biological target: human GPR40 receptor (Homo sapiens); construct: host or cells: CHO-K1 (co-expressing aequorin); experiment: Analysis of receptor activation - calcium ions concentration measurement (aequorin luminescence); format: cell-based; conditions: enhancement or decrease of activity in relation to reference TAK-875, from EC50 values
Sequence (O14842 whole entry): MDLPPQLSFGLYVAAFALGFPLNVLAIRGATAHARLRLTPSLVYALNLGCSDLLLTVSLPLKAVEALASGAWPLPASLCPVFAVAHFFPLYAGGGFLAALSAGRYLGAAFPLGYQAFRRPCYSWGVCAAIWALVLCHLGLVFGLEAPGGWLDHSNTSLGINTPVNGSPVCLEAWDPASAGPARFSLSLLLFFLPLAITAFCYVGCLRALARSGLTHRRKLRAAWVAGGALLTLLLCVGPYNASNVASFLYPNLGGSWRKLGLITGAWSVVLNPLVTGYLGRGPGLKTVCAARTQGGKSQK
Property name: % PTAK-875

Some solved cases for reference:
C=C(C)/C=C/COc1ccc([C@@H](C#CC)CC(=O)O)cc1; A (>120% PTAK-875)
CC#C[C@@H](CC(=O)O)c1ccc(OCC(C)C(C)C)cc1 (mixture of isomers); A (>120% PTAK-875)
CC#C[C@@H](CC(=O)O)c1ccc(OC(C)C(C)C)cc1 (mixture of isomers); A (>120% PTAK-875)
CC#C[C@@H](CC(=O)O)c1ccc(OCCCCCC)cc1; A (>120% PTAK-875)
CC#C[C@@H](CC(=O)O)c1ccc(OC(CC)CC)cc1; E (<20% PTAK-875)

Task: Lab note: need % PTAK-875 for CC#CC(CC(=O)O)c1ccc(OCC(C)(C)C)cc1 (racemic) on human GPR40 receptor (Homo sapiens), anyone have it?
Result: E (<20% PTAK-875)

Task: Lab note: need % PTAK-875 for CC#C[C@@H](CC(=O)O)c1ccc(OC/C=C/C=C/C)cc1 on human GPR40 receptor (Homo sapiens), anyone have it?
Result: A (>120% PTAK-875)
